Data origin, for the record: patent US11407736B2

target: RIPK1 (Homo sapiens (Human)); experiment: RIPK1 ADP-Glo biochemical kinase assay; details: read-out: RIPK1 ADP-Glo Kinase (IC50)
Sequence (Q13546 whole entry, species assumed): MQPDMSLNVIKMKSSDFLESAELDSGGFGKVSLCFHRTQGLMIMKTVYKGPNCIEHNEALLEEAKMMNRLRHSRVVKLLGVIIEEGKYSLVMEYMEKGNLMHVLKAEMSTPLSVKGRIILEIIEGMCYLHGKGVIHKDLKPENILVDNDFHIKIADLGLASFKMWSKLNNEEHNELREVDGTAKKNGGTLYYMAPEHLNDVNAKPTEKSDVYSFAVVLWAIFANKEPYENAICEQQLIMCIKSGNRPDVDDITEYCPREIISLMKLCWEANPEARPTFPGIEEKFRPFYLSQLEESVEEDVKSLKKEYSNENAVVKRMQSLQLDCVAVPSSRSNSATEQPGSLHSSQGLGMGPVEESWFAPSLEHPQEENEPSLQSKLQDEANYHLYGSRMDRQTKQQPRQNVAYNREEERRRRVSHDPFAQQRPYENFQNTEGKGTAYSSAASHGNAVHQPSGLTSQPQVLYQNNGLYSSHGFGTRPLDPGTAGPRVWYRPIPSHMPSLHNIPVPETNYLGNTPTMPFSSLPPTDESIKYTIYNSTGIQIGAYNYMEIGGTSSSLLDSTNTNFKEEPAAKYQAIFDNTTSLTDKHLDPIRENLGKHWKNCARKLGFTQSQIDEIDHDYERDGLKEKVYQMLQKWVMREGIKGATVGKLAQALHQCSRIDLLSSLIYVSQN
readout_name: pIC50
In simple prose, pIC50 is minus the logarithm base ten of a concentration in moles per litre.

The examples below pair each entry with its known result.
Assign pIC50 to the following record: CN1C(=O)[C@@H](NC(=O)c2n[nH]c(Cc3ccccc3)n2)COc2ccc(C#C[Si](C)(C)C)cc21 [Compound I-97]
7.07

Could you please provide reported pIC50 for CN1C(=O)[C@@H](NC(=O)c2n[nH]c(Cc3ccccc3)n2)COc2ccc(C#CCCOc3cccc4ncccc34)cc21 [Compound I-45] ? Thanks!
7.08

Please look at this compound and report its pIC50: CN1C(=O)[C@@H](NC(=O)c2n[nH]c(Cc3c(Cl)cccc3Cl)n2)COc2ccc(C#CC(C)(C)O)cc21 [Compound I-65]
7.19

Consider the compound CN1C(=O)[C@@H](NC(=O)c2cc(Oc3ccccc3)ccn2)COc2ccc(C#Cc3cn(C)cn3)cc21 [Compound I-203] . State its measured pIC50.
7.63

Entry CN1C(=O)[C@@H](NC(=O)c2n[nH]c(Cc3ccc(F)cc3F)n2)COc2ccc(C#CC(C)(C)O)cc21 [Compound I-43] needs its pIC50 filled in; supply it.
7.07

New cases:
Hello, please tell me recorded pIC50 for this one: CN1C(=O)[C@@H](NC(=O)n2cc(Cc3ccc(F)cc3)cn2)COc2ccc(C#CC3(O)COC3)cc21 [Compound I-222]
7.78

Please look at this compound and report its pIC50: CN1C(=O)[C@@H](NC(=O)c2ncn(Cc3ccc(-c4ccccc4)cc3)n2)COc2ccc(C#CC(C)(C)O)cc21 [Compound I-83]
7.18
